System: Kunming mice
assay.name: Influence on hypnosis effect with pentobarbital sodium doses at the threshold (50 mg/kg i.p.)
Format: in vivo
conditions.used: 100 mg/kg intragastric single dose, pentobarbital sodium 50 mg/kg i.p. 60 min later, x ± s, n = 10
quantity: duration of sleep (min)
Reply with just the number (in min).

// worked examples, duration of sleep included
O=c1cc(-c2cc(O)c(Oc3ccccc3)c(CCCCCCCCCCCCCCCCCCCCCl)c2)oc2cc(C#Cc3ccccc3)cc([N+](=O)[O-])c12; 55.62
CCc1cc(C2CC(=O)c3cc([N+](=O)[O-])c(SC#N)c(C4CCNC4)c3O2)ccc1C(=O)c1ccccc1 (stereo not drawn); 47.53
C=Cc1cc(C(N)=O)cc2oc(-c3ccc(N)c(C4CCSC4)c3)cc(=O)c12 (stereo not drawn); 52.95
COc1ccc(C2CC(=O)c3c(OC)cc(OC)c(OC)c3O2)cc1OC (stereo not drawn); 89.39
CC=Cc1cc(-c2cc(=O)c3c(CCCCC)cc(C(=O)O)cc3o2)cc(C(=O)O)c1C#N; 65.28
COc1cc(OC)c2c(=O)cc(-c3ccc(OC)c(OC)c3)oc2c1 [Example 36]; 72.03

Task: Fill blank: measured duration of sleep of the compound COc1cc(OC)c2c(c1)OC(c1cc(OC)c(OC)c(OC)c1)CC2=O (stereo not drawn) is ____.
Output: 55.58

Task: Dear colleague, I am looking for the recorded duration of sleep of the following compound: "C=Cc1ccc(-c2cc(=O)c3cc(C#N)c(Cc4ccccc4)c(C=CC)c3o2)cc1[N+](=O)[O-]"
Output: 54.78

Task: Which duration of sleep is listed for "COc1ccc(-c2cc(=O)c3c(O)cc(OC)c(OC)c3o2)c(OC)c1OC" ?
Output: 85.16

---

# key: entry, value: rate of sleeping (%)
Test system: Kunming mice
assay.name: Influence on hypnosis effect with pentobarbital sodium doses below the threshold (25 mg/kg i.p.)
Assay type: in vivo
conditions.used: test drug 50 mg/kg intragastric single dose, pentobarbital sodium 25 mg/kg i.p. 60 min later, sleep observed in 30 min, n = 10
Marks after values point to notes of the source that are not given here.

Known rate of sleeping (%) results, listed for orientation:
N#CSc1ccc(-c2cc(=O)c3cc(N)c(F)c(C#N)c3o2)cc1O; 50** %
COc1ccc(C2CC(=O)c3c(O)c(OC)c(OC)c(OC)c3O2)cc1OC (stereo not shown) [Example 64]; 70** %
COc1cc(OC)c2c(=O)cc(-c3ccccc3O)oc2c1OC [Example 3, 2′-hydroxyl-5,7,8-trimethoxyl-flavone]; 40* %

Task: Look up rate of sleeping (%): "CC=Cc1cc(Cc2ccccc2)c2c(=O)cc(-c3cc(C#N)c([N+](=O)[O-])c(Cc4ccccc4)c3)oc2c1"
Output: 70** %

---

Tested on: Kunming mice
assay.name: Influence on autonomic activity of normal mice (ZIL-2 mice autonomic activity meter, counts within 10 min)
Format: in vivo
conditions.used: intragastric, 25 mg/kg, 2 h after administration, x ± s, n = 10
quantity: Times of activities in 2 h after drug administration/10 min

COc1ccc(C2CC(=O)c3c(O)c(OC)c(OC)c(OC)c3O2)cc1 (centres unmarked); 233.2 ± 35.1 /10 min

Task: Times of activities in 2 h after drug administration/10 min lookup needed for CCCc1cc(C2CC(=O)c3c(cc(O)cc3[N+](=O)[O-])O2)cc(-c2ccccc2)c1C1CCSC1 (centres unmarked) , thanks.
Output: 231.8 ± 79.8 /10 min

Task: // returns reported Times of activities in 2 h after drug administration/10 min for input COc1cc(C2Oc3c(cc(OC)c(OC)c3OC)C(=O)C2OC)c(O)c(OC)c1OC (centres unmarked)
Output: 278.3 ± 40.3 /10 min

Task: Times of activities in 2 h after drug administration/10 min for "COc1cc(-c2cc(=O)c3c(OC)c(OC)c(OC)cc3o2)cc(OC)c1OC" ?
Output: 278.5 ± 42.8 /10 min

Task: Which Times of activities in 2 h after drug administration/10 min value is on record for O=C1CC(c2ccc(O)c(O)c2)Oc2cc(O)cc(O)c21 (centres unmarked) ?
Output: 267.8 ± 32.9 /10 min

Task: Look at this molecule and give its reported Times of activities in 2 h after drug administration/10 min. "CC=Cc1cc(-c2cc(=O)c3c(CCCCC)cc(C(=O)O)cc3o2)cc(C(=O)O)c1C#N"
Output: 279.0 ± 32.2 /10 min

Task: Request the reported Times of activities in 2 h after drug administration/10 min associated with C=Cc1cc(C2CC(=O)c3cc(C(N)=O)c(C4CCSC4)c(Oc4ccccc4)c3O2)ccc1N (centres unmarked)
Output: 288.1 ± 73.0 /10 min

Task: What value of measured Times of activities in 2 h after drug administration/10 min is listed for CCCc1ccc(C2CC(=O)c3c(O)cc([N+](=O)[O-])cc3O2)cc1OC (centres unmarked) ?
Output: 289.4 ± 40.2 /10 min

---

System: Kunming mice
assay.name: Influence on hypnosis effect with pentobarbital sodium doses below the threshold (25 mg/kg i.p.)
Format: in vivo
conditions.used: test drug 50 mg/kg intragastric single dose, pentobarbital sodium 25 mg/kg i.p. 60 min later, sleep observed in 30 min, n = 10
Marks after values point to notes of the source that are not given here.
quantity: rate of sleeping (%)

COc1cc2c(c(OC)c1OC)OC(c1cc(OC)c(OC)c(OC)c1OC)CC2=O (stereo not shown); 60** %

Task: If you can, please state the reported rate of sleeping (%) value of CCc1cccc2c1C(=O)CC(c1cc(F)cc(C(=O)O)c1)O2 (stereo not shown) .
Output: 60** %

Task: Given the molecule COc1cc(OC)c2c(=O)cc(-c3ccc(OC)c(O)c3)oc2c1 [Example 4, 3′-hydroxyl-5,7,4′-trimethoxyl-flavone] , what is its reported rate of sleeping (%)?
Output: 70** %

Task: GET /values?readout=rate of sleeping (%)&item= "COc1ccc(-c2cc(=O)c3c(OC)c(OC)c(OC)cc3o2)cc1OC"
Output: 50** %

Task: rate of sleeping (%) for C=Cc1cc(C(N)=O)cc2oc(-c3ccc(N)c(C4CCSC4)c3)cc(=O)c12 (stereo not shown) ?
Output: 80*** %

---

System: Kunming mice
assay.name: Influence on hypnosis effect with pentobarbital sodium doses at the threshold (50 mg/kg i.p.)
Assay type: in vivo
conditions.used: 100 mg/kg intragastric single dose, pentobarbital sodium 50 mg/kg i.p. 60 min later, x ± s, n = 10
1.0 means recorded time to sleep is 4 min or above; 0.0 means it is below 4 min.

COc1ccc(C2CC(=O)c3cc(OC)c(OC)c(OC)c3O2)cc1OC (stereo not shown); 0.0

Task: Reported time to sleep at or above 4 min? "COc1ccc(-c2cc(=O)c3c(O)cc(OC)c(OC)c3o2)c(OC)c1OC"
Output: 0.0

---

# key: entry, value: duration of sleep
System: Kunming mice
assay.name: Influence on hypnosis effect with pentobarbital sodium doses at the threshold (50 mg/kg i.p.)
Assay type: in vivo
conditions.used: 50 mg/kg intragastric single dose, pentobarbital sodium 50 mg/kg i.p. 60 min later, x ± s, n = 10
Write the number in min without appending the unit.

// known answers, use as guide
C=Cc1cc(C2CC(=O)c3cc(C(N)=O)c(C4CCSC4)c(Oc4ccccc4)c3O2)ccc1N (stereo not shown) [Example 57]; 48.87
COc1ccc(C2CC(=O)c3cc(OC)c(OC)c(OC)c3O2)cc1OC (stereo not shown) [Example 45, 6,7,8,3′,4′-penta methoxyl-flavanone]; 66.42
O=C1CC(c2ccc(O)c(O)c2)Oc2cc(O)cc(O)c21 (stereo not shown) [Example 71]; 36.63
COc1ccc(-c2cc(=O)c3c(O)cc(OC)c(OC)c3o2)cc1O [Example 2]; 39.23
COc1cc(C2Oc3c(cc(OC)c(OC)c3OC)C(=O)C2OC)c(O)c(OC)c1OC (stereo not shown) [Example 69]; 57.73
CCc1cc(C2CC(=O)c3cc([N+](=O)[O-])c(SC#N)c(C4CCNC4)c3O2)ccc1C(=O)c1ccccc1 (stereo not shown) [Example 54]; 43.53
COc1c(O)cc(C2CC(=O)c3c(O)cc(O)cc3O2)cc1C(=O)O (stereo not shown) [Example 50]; 28.68
O=c1cc(-c2cc(O)c(Oc3ccccc3)c(CCCCCCCCCCCCCCCCCCCCCl)c2)oc2cc(C#Cc3ccccc3)cc([N+](=O)[O-])c12 [Example 16]; 48.11

Task: Return reported duration of sleep; argument: CCCc1cc(C2CC(=O)c3c(cc(O)cc3[N+](=O)[O-])O2)cc(-c2ccccc2)c1C1CCSC1 (stereo not shown) [Example 51]
Output: 57.61

Task: Need duration of sleep of COc1ccc(C2CC(=O)c3c(O)c(OC)c(OC)c(OC)c3O2)cc1OC (stereo not shown) [Example 64] , thanks.
Output: 48.23

Values compiled from patent US9669003B2.
